target: human ferroportin (Homo sapiens, UniProt Q9NP59); construct: luciferase reporter (probably NanoLuc, inferred from the Nano-Glo Luciferase Assay System read-out); expressed in transfected cells; host or cells: CHO cells, stably transfected, expression induced with doxycycline; assay: In-vitro ferroportin internalization assay (luciferase reporter); format: cell-based; conditions: average pEC50; stably-transfected CHO cell line expressing human ferroportin tagged to a luciferase reporter; 6 h incubation with test compound
Sequence (Q9NP59 whole entry): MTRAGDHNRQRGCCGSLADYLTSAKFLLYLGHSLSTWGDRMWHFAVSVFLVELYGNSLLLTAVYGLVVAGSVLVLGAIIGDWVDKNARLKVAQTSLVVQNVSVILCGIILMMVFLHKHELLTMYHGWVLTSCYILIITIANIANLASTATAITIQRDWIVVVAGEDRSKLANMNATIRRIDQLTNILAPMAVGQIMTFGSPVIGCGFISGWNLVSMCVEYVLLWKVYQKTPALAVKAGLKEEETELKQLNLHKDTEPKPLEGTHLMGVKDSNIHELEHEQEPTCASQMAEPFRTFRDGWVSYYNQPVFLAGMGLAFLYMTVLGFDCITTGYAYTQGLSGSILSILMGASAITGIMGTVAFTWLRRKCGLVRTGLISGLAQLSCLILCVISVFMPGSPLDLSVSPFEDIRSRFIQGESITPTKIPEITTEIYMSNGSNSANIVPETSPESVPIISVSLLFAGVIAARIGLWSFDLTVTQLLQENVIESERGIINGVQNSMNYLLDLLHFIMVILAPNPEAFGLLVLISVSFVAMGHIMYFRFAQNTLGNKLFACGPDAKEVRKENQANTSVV
If the reported pEC50 equals or exceeds 6, assign Fulfilled. If not, assign Not fulfilled.

Consider the worked cases shown below.
Mol Smiles: CNC(=O)CNc1nc(-c2ccccn2)nc2scc(-c3ccccc3)c12
Class Label: Not fulfilled

Mol Smiles: Cc1cccc(C)c1NC(=O)CN(C)c1nc(-c2ccccn2)nc(C)c1C
Class Label: Fulfilled

Mol Smiles: CCN(CC)CCCNc1nc(-c2ccccn2)nc2scc(-c3ccccc3)c12
Class Label: Not fulfilled

Prompt: Does the compound CCc1cc(NCCNC(=O)NC2CCCCC2)nc(-c2ccccn2)n1 have recorded pEC50 that is 6 or more?
Response: Not fulfilled

Prompt: Does the compound COCCNc1nc(-c2ccccn2)nc2sc(C)c(C)c12 have recorded pEC50 that is 6 or more?
Response: Fulfilled

Prompt: Does the compound CN(CCCc1n[nH]c(N)c1C#N)c1nc(-c2ccccn2)nc2scc(-c3ccccc3)c12 have recorded pEC50 that is 6 or more?
Response: Fulfilled

Prompt: Does the compound Cc1nc(-c2ccccn2)nc(N(C)CCN(C)c2ccccc2)c1C have recorded pEC50 that is 6 or more?
Response: Fulfilled

Prompt: Does the compound c1ccc(-c2csc3nc(-c4ccccn4)nc(NC4CC4)c23)cc1 have recorded pEC50 that is 6 or more?
Response: Not fulfilled
